# Test Description: APR_HepG2_P-H2AX_24hr: Apredica 24-hour HepG2 Assay for H2AX Phosphorylation (AID 2282920)
# Protocol Conditions: high-content imaging, actives raise or lower the signal
Activity calls are given as the source filed them. The calls were made as follows: active = hit-call score of the fitted dose curve at least 0.9, where 1 is the maximum; inactive = score below 0.9.
Hello, when you answer, please use one of the following outcomes: yes for active, no for inactive

The following compounds have reported results that may help.
INSERT INTO results (compound, class_label) VALUES
  ('CCCCCCCCCCCCCCCCCC(=O)O', 'no'),
  ('O=C(OCCCCCOC(=O)c1ccccc1)c1ccccc1', 'no'),
  ('CC1(C)NC(=O)NC1=O', 'no');

What did this assay record as the result for `FC(F)(F)C(F)(F)C(F)(F)C(F)(F)C(F)(F)C(F)(F)CCI` ?
no

Next record, please: `Cc1cc(NC(=O)C(=O)O)cc(C)c1Oc1ccc(O)c2c1CCC2`
no

And what about the compound `C=CCOC(=O)c1ccccc1C(=O)OCC=C` ?
no

Same read-out for `O=c1[nH]cc(F)c(=O)[nH]1` ?
no

What about this compound? `COc1ccc(S(=O)(=O)N2C(=O)[C@@](c3ccccc3OC)(N3C[C@H](O)C[C@H]3C(=O)N(C)C)c3cc(Cl)ccc32)c(OC)c1`
yes

Please do the same for `CCCCCC(=O)O` as well.
no

Same read-out for `CC(=O)OC/C=C(\C)CCC=C(C)C` ?
no

One more compound: `Cc1ccc(C)c(C)c1`
no

Next record, please: `CCCCCCC(=O)OCC`
no
